Source of measurements: patent US20240390512A1

Molecular target: T1, human CDH6 (full-length and EC domain deletion mutants) (Homo sapiens, UniProt P55285, DEL160-268)
T1 construct: each one of the five EC domains could be deleted from full-length human CDH6; 3xFLAG (deletion mutants only, from the vector p3×FLAG-CMV-9); expressed in transfected cells; host or cells: 293α cells
T1 sequence (P55285 with tags, fused parts or gaps DEL160-268): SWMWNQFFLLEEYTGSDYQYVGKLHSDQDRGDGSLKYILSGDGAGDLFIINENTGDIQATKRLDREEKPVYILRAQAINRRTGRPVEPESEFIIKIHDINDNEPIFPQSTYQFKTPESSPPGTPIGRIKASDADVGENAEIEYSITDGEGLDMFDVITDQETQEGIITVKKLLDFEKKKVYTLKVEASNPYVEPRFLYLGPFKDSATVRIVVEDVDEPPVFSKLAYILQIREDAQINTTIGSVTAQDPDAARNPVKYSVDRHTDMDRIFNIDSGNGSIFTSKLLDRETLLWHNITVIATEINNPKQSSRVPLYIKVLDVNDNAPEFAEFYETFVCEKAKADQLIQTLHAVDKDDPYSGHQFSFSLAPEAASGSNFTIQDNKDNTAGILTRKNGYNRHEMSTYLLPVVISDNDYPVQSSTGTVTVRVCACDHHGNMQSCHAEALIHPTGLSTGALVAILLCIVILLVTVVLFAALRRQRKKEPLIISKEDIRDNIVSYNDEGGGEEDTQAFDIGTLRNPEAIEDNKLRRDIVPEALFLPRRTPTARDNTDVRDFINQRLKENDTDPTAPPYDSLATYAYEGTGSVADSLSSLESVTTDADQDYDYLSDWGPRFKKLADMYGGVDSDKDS
Assay: Epitope analysis of rat anti-CDH6 antibody by flow cytometry using domain deletion mutants
Type: binding
Conditions: flow cytometry; transfected 293α cells; antibody 20 nM

MOLECULE: rG055: rat anti-human CDH6 monoclonal antibody produced by hybridoma rG055; variable regions SEQ ID NO: 20 and 25 (antibody, listed as Rattus norvegicus, V domains shown) VL: DVQMTHSPSYLAASPGESVSISCKTSKNISNYLVWYQQKPGEAYKLLIYSGSTLQSGTPSRFSGSGSGTDFTLTIRSLEPEDFGLYFCQQYYEKPFTFGSGTKLEIKRA VH: EVQLQESGPGLVRPSQSLSLSCSVTDYSITSNYWGWIRRFPGNKMEWMGYITYSGYTSYNPSLQSRISITRDTSKNQFFLQLNSVTAEDTATYYCARSINHGGYSYVVDAWGPGASVTVSS
binding to EC2 deletion mutant: bind
